Ki values for the compounds below.
# targetOrTestSystem: Dimer of Gag-Pol polyprotein [489-587] (Human immunodeficiency virus 1, UniProt P12497)
# Construct: 489-587
# testDetails: Protease Inhibition Assay
endpointName: Ki (nM)

compound: O=c1oc2c(c(O)c1C(c1cccc(NS(=O)(=O)c3ccc(Cl)cc3)c1)C1CC1)CCCCCC2 (centres undefined)
targetOrTestSystem: Dimer of Gag-Pol polyprotein [489-587] (Human immunodeficiency virus 1, UniProt P12497)
qualifier: =
numericValue: 2.5
//
compound: O=c1oc2c(c(O)c1C(c1cccc(NS(=O)(=O)c3cnccn3)c1)C1CC1)CCCCCC2 (centres undefined)
targetOrTestSystem: Dimer of Gag-Pol polyprotein [489-587] (Human immunodeficiency virus 1, UniProt P12497)
qualifier: =
numericValue: 0.2
//
compound: O=c1oc2c(c(O)c1C(c1cccc(NS(=O)(=O)c3ccc4ccccc4n3)c1)C1CC1)CCCCCC2 (centres undefined)
targetOrTestSystem: Dimer of Gag-Pol polyprotein [489-587] (Human immunodeficiency virus 1, UniProt P12497)
qualifier: =
numericValue: 0.4
//
compound: O=c1oc2c(c(O)c1C(c1cccc(NS(=O)(=O)c3cccc4ccccc34)c1)C1CC1)CCCCCC2 (centres undefined)
targetOrTestSystem: Dimer of Gag-Pol polyprotein [489-587] (Human immunodeficiency virus 1, UniProt P12497)
qualifier: =
numericValue: 5.5
//
compound: O=c1oc2c(c(O)c1C(c1cccc(NS(=O)(=O)c3ncccn3)c1)C1CC1)CCCCCC2 (centres undefined)
targetOrTestSystem: Dimer of Gag-Pol polyprotein [489-587] (Human immunodeficiency virus 1, UniProt P12497)
qualifier: =
numericValue: 0.8
//
compound: O=c1oc2c(c(O)c1C(c1cccc(NS(=O)(=O)c3cc(Cl)cc(Cl)c3)c1)C1CC1)CCCCCC2 (centres undefined)
targetOrTestSystem: Dimer of Gag-Pol polyprotein [489-587] (Human immunodeficiency virus 1, UniProt P12497)
qualifier: =
numericValue: 6.9
//
compound: O=c1oc2c(c(O)c1C(c1cccc(NS(=O)(=O)c3ccc([N+](=O)[O-])cc3)c1)C1CC1)CCCCCC2 (centres undefined)
targetOrTestSystem: Dimer of Gag-Pol polyprotein [489-587] (Human immunodeficiency virus 1, UniProt P12497)
qualifier: =
numericValue: 2.7
//
compound: O=c1oc2c(c(O)c1C(c1cccc(NS(=O)(=O)c3cccc(Cl)c3Cl)c1)C1CC1)CCCCCC2 (centres undefined)
targetOrTestSystem: Dimer of Gag-Pol polyprotein [489-587] (Human immunodeficiency virus 1, UniProt P12497)
qualifier: =
numericValue: 7.6
//
compound: O=c1oc2c(c(O)c1C(c1cccc(NS(=O)(=O)c3ccc(OC(F)(F)F)cc3)c1)C1CC1)CCCCCC2 (centres undefined)
targetOrTestSystem: Dimer of Gag-Pol polyprotein [489-587] (Human immunodeficiency virus 1, UniProt P12497)
qualifier: =
numericValue: 4
//
compound: O=c1oc2c(c(O)c1C(c1cccc(NS(=O)(=O)c3cc(Cl)ccc3Cl)c1)C1CC1)CCCCCC2 (centres undefined)
targetOrTestSystem: Dimer of Gag-Pol polyprotein [489-587] (Human immunodeficiency virus 1, UniProt P12497)
qualifier: =
numericValue: 74
//
compound: O=c1oc2c(c(O)c1C(c1cccc(NS(=O)(=O)c3ccc(Cl)c(Cl)c3Cl)c1)C1CC1)CCCCCC2 (centres undefined)
targetOrTestSystem: Dimer of Gag-Pol polyprotein [489-587] (Human immunodeficiency virus 1, UniProt P12497)
qualifier: =
numericValue: 8.8
//
compound: O=c1oc2c(c(O)c1C(c1cccc(NS(=O)(=O)c3cccc4cccnc34)c1)C1CC1)CCCCCC2 (centres undefined)
targetOrTestSystem: Dimer of Gag-Pol polyprotein [489-587] (Human immunodeficiency virus 1, UniProt P12497)
qualifier: =
numericValue: 1.9
//
compound: O=c1oc2c(c(O)c1C(c1cccc(NS(=O)(=O)c3ccc(Cl)cc3Cl)c1)C1CC1)CCCCCC2 (centres undefined)
targetOrTestSystem: Dimer of Gag-Pol polyprotein [489-587] (Human immunodeficiency virus 1, UniProt P12497)
qualifier: =
numericValue: 6.2
//
compound: O=c1oc2c(c(O)c1C(c1cccc(NS(=O)(=O)c3cscn3)c1)C1CC1)CCCCCC2 (centres undefined)
targetOrTestSystem: Dimer of Gag-Pol polyprotein [489-587] (Human immunodeficiency virus 1, UniProt P12497)
qualifier: =
numericValue: 1.6
//
compound: Cc1cccc(C)c1S(=O)(=O)Nc1cccc(C(c2c(O)c3c(oc2=O)CCCCCC3)C2CC2)c1 (centres undefined)
targetOrTestSystem: Dimer of Gag-Pol polyprotein [489-587] (Human immunodeficiency virus 1, UniProt P12497)
qualifier: >
numericValue: 200
//
compound: O=c1oc2c(c(O)c1C(c1cccc(NS(=O)(=O)c3cccs3)c1)C1CC1)CCCCCC2 (centres undefined)
targetOrTestSystem: Dimer of Gag-Pol polyprotein [489-587] (Human immunodeficiency virus 1, UniProt P12497)
qualifier: =
numericValue: 6.3
//
compound: O=c1oc2c(c(O)c1C(c1cccc(NS(=O)(=O)c3ccc(I)cc3)c1)C1CC1)CCCCCC2 (centres undefined)
targetOrTestSystem: Dimer of Gag-Pol polyprotein [489-587] (Human immunodeficiency virus 1, UniProt P12497)
qualifier: =
numericValue: 3.1
//
compound: O=c1oc2c(c(O)c1C(c1cccc(NS(=O)(=O)c3ccc(C(F)(F)F)cc3)c1)C1CC1)CCCCCC2 (centres undefined)
targetOrTestSystem: Dimer of Gag-Pol polyprotein [489-587] (Human immunodeficiency virus 1, UniProt P12497)
qualifier: =
numericValue: 6.2
//
compound: [N-]=[N+]=Nc1ccc(S(=O)(=O)Nc2cccc(C(c3c(O)c4c(oc3=O)CCCCCC4)C3CC3)c2)cc1 (centres undefined)
targetOrTestSystem: Dimer of Gag-Pol polyprotein [489-587] (Human immunodeficiency virus 1, UniProt P12497)
qualifier: =
numericValue: 2.6

###

# targetOrTestSystem: Dimer of Gag-Pol polyprotein [489-587] (Human immunodeficiency virus 1, UniProt P12497)
# Construct: 489-587
# testDetails: Protease Inhibition Assay
pKi: −log10 of the molar value.
If the reported pKi equals or exceeds 8, assign 1. If not, assign -1.

compound: O=c1oc2c(c(O)c1C(c1cccc(NS(=O)(=O)c3ccc(F)cc3F)c1)C1CC1)CCCCCC2 (stereo not drawn)
classAssignment: 1
--
compound: O=c1oc2c(c(O)c1C(c1cccc(NS(=O)(=O)c3c(Cl)cccc3Cl)c1)C1CC1)CCCCCC2 (stereo not drawn)
classAssignment: -1
--
compound: O=c1oc2c(c(O)c1C(c1cccc(NS(=O)(=O)c3ccc(Cl)c(Cl)c3)c1)C1CC1)CCCCCC2 (stereo not drawn)
classAssignment: 1
--
compound: O=c1oc2c(c(O)c1C(c1cccc(NS(=O)(=O)c3ccc4ccccc4c3)c1)C1CC1)CCCCCC2 (stereo not drawn)
classAssignment: 1
--
compound: O=c1oc2c(c(O)c1C(c1cccc(NS(=O)(=O)c3ccc(C(F)(F)F)c(C(F)(F)F)c3)c1)C1CC1)CCCCCC2 (stereo not drawn)
classAssignment: -1
--
compound: N#Cc1ccc(S(=O)(=O)Nc2cccc(C(c3c(O)c4c(oc3=O)CCCCCC4)C3CC3)c2)nc1 (stereo not drawn)
classAssignment: 1
--
compound: O=c1oc2c(c(O)c1C(c1cccc(NS(=O)(=O)c3ccc(F)cc3)c1)C1CC1)CCCCCC2 (stereo not drawn)
classAssignment: 1
--
compound: O=c1oc2c(c(O)c1C(c1cccc(NS(=O)(=O)c3ccc(Br)cc3)c1)C1CC1)CCCCCC2 (stereo not drawn)
classAssignment: 1

###

# targetOrTestSystem: Dimer of Gag-Pol polyprotein [489-587] (Human immunodeficiency virus 1)
# Construct: 489-587
# testDetails: Protease Inhibition Assay
# conditionLabel: pH 5; 22 °C
Ki values for the compounds below.
endpointName: Ki (nM)

compound: O=c1oc2c(c(O)c1C(c1cccc(NS(=O)(=O)Cc3ccccc3)c1)C1CC1)CCCCCC2 (stereo unspecified)
targetOrTestSystem: Dimer of Gag-Pol polyprotein [489-587] (Human immunodeficiency virus 1)
numericValue: 13
--
compound: O=c1oc2c(c(O)c1C(c1cccc(NS(=O)(=O)c3cccc(C(F)(F)F)c3)c1)C1CC1)CCCCCC2 (stereo unspecified)
targetOrTestSystem: Dimer of Gag-Pol polyprotein [489-587] (Human immunodeficiency virus 1)
numericValue: 3
--
compound: O=c1oc2c(c(O)c1C(c1cccc(NS(=O)(=O)c3cccc(Cl)c3)c1)C1CC1)CCCCCC2 (stereo unspecified)
targetOrTestSystem: Dimer of Gag-Pol polyprotein [489-587] (Human immunodeficiency virus 1)
numericValue: 2.7
--
compound: O=c1oc2c(c(O)c1C(c1cccc(NS(=O)(=O)c3ccccc3C(F)(F)F)c1)C1CC1)CCCCCC2 (stereo unspecified)
targetOrTestSystem: Dimer of Gag-Pol polyprotein [489-587] (Human immunodeficiency virus 1)
numericValue: 21
--
compound: O=c1oc2c(c(O)c1C(c1cccc(NS(=O)(=O)CCc3ccccc3)c1)C1CC1)CCCCCC2 (stereo unspecified)
targetOrTestSystem: Dimer of Gag-Pol polyprotein [489-587] (Human immunodeficiency virus 1)
numericValue: 3.9
--
compound: O=c1oc2c(c(O)c1C(c1cccc(NS(=O)(=O)c3ccccc3Cl)c1)C1CC1)CCCCCC2 (stereo unspecified)
targetOrTestSystem: Dimer of Gag-Pol polyprotein [489-587] (Human immunodeficiency virus 1)
numericValue: 9.3
--
compound: O=c1oc2c(c(O)c1C(c1cccc(NS(=O)(=O)c3cccc([N+](=O)[O-])c3)c1)C1CC1)CCCCCC2 (stereo unspecified)
targetOrTestSystem: Dimer of Gag-Pol polyprotein [489-587] (Human immunodeficiency virus 1)
numericValue: 4.7
--
compound: O=c1oc2c(c(O)c1C(c1cccc(NS(=O)(=O)c3ccccc3F)c1)C1CC1)CCCCCC2 (stereo unspecified)
targetOrTestSystem: Dimer of Gag-Pol polyprotein [489-587] (Human immunodeficiency virus 1)
numericValue: 11
--
compound: N#Cc1ccccc1S(=O)(=O)Nc1cccc(C(c2c(O)c3c(oc2=O)CCCCCC3)C2CC2)c1 (stereo unspecified)
targetOrTestSystem: Dimer of Gag-Pol polyprotein [489-587] (Human immunodeficiency virus 1)
numericValue: 7.4
--
compound: O=c1oc2c(c(O)c1C(c1cccc(NS(=O)(=O)/C=C/c3ccccc3)c1)C1CC1)CCCCCC2 (stereo unspecified)
targetOrTestSystem: Dimer of Gag-Pol polyprotein [489-587] (Human immunodeficiency virus 1)
numericValue: 3
--
compound: O=c1oc2c(c(O)c1C(c1cccc(NS(=O)(=O)c3cccc(Br)c3)c1)C1CC1)CCCCCC2 (stereo unspecified)
targetOrTestSystem: Dimer of Gag-Pol polyprotein [489-587] (Human immunodeficiency virus 1)
numericValue: 2.6
